The measured values listed here are drawn from ChEMBL document CHEMBL3992491.

Form field: pIC50 (one value per entry).
- testTarget: Delta-type opioid receptor (Homo sapiens)
- Sequence (P41143 whole entry): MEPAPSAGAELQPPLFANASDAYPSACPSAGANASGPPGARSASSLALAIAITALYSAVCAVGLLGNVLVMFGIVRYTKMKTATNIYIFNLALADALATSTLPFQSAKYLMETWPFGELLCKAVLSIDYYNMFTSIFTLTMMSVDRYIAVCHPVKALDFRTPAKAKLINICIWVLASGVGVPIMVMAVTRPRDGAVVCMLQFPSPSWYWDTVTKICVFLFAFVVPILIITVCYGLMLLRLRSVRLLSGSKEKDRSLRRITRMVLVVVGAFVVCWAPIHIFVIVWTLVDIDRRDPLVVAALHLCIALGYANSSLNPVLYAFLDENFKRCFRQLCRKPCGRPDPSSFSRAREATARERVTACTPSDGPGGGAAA
- measurementProtocol: Agonist activity at human DOR expressed in HEK293 cells assessed as inhibition of forskolin-induced adenylyl cyclase-mediated cAMP accumulation after 30 mins by HTRF assay
- Assay type: functional, cell-based
- conditionInfo: read-out: IC50
Scale: negative log10 of molar concentration, which is what pIC50 denotes.

Reference set, count: 3
Enquiry: Would you kindly share the measured pIC50 for O=C(NCC1NCCc2ccccc21)c1ccc(Cl)cc1 (stereo not given) ?
Return: 5.38

Enquiry: Would you kindly share the measured pIC50 for O=C(NCC1NCCc2ccccc21)c1ccc(OC(F)(F)F)cc1 (stereo not given) ?
Return: 7.40

Enquiry: Would you kindly share the measured pIC50 for O=C(NCC1NCCc2ccccc21)c1cccc(Cl)c1 (stereo not given) ?
Return: 6.77

Continuing:
Enquiry: Would you kindly share the measured pIC50 for O=C(NCC1NCCc2ccccc21)c1ccc(F)cc1 (stereo not given) ?
Return: 7.40

Enquiry: Would you kindly share the measured pIC50 for CCc1ccc(C(=O)NCC2c3ccccc3CCN2C)cc1 (stereo not given) ?
Return: 6.72

---

- testTarget: Kappa-type opioid receptor (Homo sapiens)
- Sequence (P41145 whole entry): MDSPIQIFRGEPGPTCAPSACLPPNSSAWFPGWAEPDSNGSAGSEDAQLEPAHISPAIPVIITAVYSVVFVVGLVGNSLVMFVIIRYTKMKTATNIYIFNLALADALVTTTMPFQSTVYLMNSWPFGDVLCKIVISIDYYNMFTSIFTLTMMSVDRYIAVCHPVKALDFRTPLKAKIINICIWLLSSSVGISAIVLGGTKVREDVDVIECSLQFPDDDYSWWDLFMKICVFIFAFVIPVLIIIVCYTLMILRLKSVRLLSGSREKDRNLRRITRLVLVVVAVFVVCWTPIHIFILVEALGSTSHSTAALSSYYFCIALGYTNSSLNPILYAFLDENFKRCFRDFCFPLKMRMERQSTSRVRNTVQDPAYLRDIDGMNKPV
- measurementProtocol: Agonist activity at human KOR expressed in HEK293 cells assessed as inhibition of forskolin-induced adenylyl cyclase-mediated cAMP accumulation after 30 mins by HTRF assay
- Assay type: functional, cell-based
readoutName: Imax (%)
Answer with a number only, understood to be in %.

Reference set, count: 2
Enquiry: Would you kindly share the measured Imax for Cc1ccc(C(=O)NCC2c3ccccc3CCN2CCCl)cc1 (stereo not drawn) ?
Return: 30

Enquiry: Would you kindly share the measured Imax for O=C(NCC1NCCc2ccccc21)c1cccc(Cl)c1 (stereo not drawn) ?
Return: 26.9

Consider now this further compound.
Enquiry: Would you kindly share the measured Imax for CCc1ccc(C(=O)NCC2c3ccccc3CCN2C)cc1 (stereo not drawn) ?
Return: 26.3

---

Form field: log10(IC50) (one value per entry).
- testTarget: Kappa-type opioid receptor (Homo sapiens)
- measurementProtocol: Agonist activity at human KOR expressed in HEK293 cells assessed as inhibition of forskolin-induced adenylyl cyclase-mediated cAMP accumulation after 30 mins by HTRF assay
The figures below represent log10 of IC50, where IC50 is stated in nM.

Enquiry: Would you kindly share the measured log10(IC50) for O=C(NCC1NCCc2ccccc21)c1ccc(Cl)cc1 (stereo not drawn) ?
Return: 1.95

Enquiry: Would you kindly share the measured log10(IC50) for O=C(NCC1NCCc2ccccc21)c1cccc(Cl)c1 (stereo not drawn) ?
Return: 3.05

Continuing:
Enquiry: Would you kindly share the measured log10(IC50) for O=C(NCC1NCCc2ccccc21)c1ccc(OC(F)(F)F)cc1 (stereo not drawn) ?
Return: 2.41

Enquiry: Would you kindly share the measured log10(IC50) for O=C(NCC1NCCc2ccccc21)c1ccc(F)cc1 (stereo not drawn) ?
Return: 4.27

Enquiry: Would you kindly share the measured log10(IC50) for Cc1ccc(C(=O)NCC2NCCc3ccccc32)cc1C (stereo not drawn) ?
Return: 3.95

Enquiry: Would you kindly share the measured log10(IC50) for CN1CCc2ccccc2C1CNC(=O)c1ccc(Cl)c(Cl)c1 (stereo not drawn) ?
Return: 2.64

Enquiry: Would you kindly share the measured log10(IC50) for CCc1ccc(C(=O)NCC2NCCc3ccccc32)cc1 (stereo not drawn) ?
Return: 2.76

Enquiry: Would you kindly share the measured log10(IC50) for CCCCN1CCc2ccccc2C1CNC(=O)c1ccc(C)cc1 (stereo not drawn) ?
Return: 2.89

---

- testTarget: UniProt:P35372
- Sequence (P35372 whole entry): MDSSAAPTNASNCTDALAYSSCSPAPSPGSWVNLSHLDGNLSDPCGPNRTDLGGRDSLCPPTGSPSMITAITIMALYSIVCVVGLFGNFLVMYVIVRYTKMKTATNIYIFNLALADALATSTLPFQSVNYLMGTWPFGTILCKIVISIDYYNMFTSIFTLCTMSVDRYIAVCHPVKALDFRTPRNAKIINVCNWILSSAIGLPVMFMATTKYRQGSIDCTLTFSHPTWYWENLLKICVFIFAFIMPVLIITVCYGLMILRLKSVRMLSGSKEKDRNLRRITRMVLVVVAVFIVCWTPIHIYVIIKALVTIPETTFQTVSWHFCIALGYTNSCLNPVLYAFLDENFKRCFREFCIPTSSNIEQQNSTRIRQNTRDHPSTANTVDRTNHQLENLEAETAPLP
- measurementProtocol: Agonist activity at human MOR expressed in HEK293 cells assessed as inhibition of forskolin-induced adenylyl cyclase-mediated cAMP accumulation after 30 mins by HTRF assay
Form field: log10 IC50 (one value per entry).
The figures below represent log10 of IC50, where IC50 is stated in nM.

Reference set, count: 5
Enquiry: Would you kindly share the measured log10 IC50 for Cc1cccc(C(=O)NCC2NCCc3ccccc32)c1 (configuration not stated) ?
Return: 3.10

Enquiry: Would you kindly share the measured log10 IC50 for Cc1ccc(C(=O)NCC2c3ccccc3CCN2C)cc1C (configuration not stated) ?
Return: 1.90

Enquiry: Would you kindly share the measured log10 IC50 for O=C(NCC1NCCc2ccccc21)c1ccc(OC(F)(F)F)cc1 (configuration not stated) ?
Return: 3.09

Enquiry: Would you kindly share the measured log10 IC50 for Cc1ccc(C(=O)NCC2c3ccccc3CCN2CCCl)cc1 (configuration not stated) ?
Return: 2.30

Enquiry: Would you kindly share the measured log10 IC50 for O=C(NCC1NCCc2ccccc21)c1cccc(Cl)c1 (configuration not stated) ?
Return: 3.31

Continuing:
Enquiry: Would you kindly share the measured log10 IC50 for O=C(NCC1NCCc2ccccc21)c1ccc(Cl)c(Cl)c1 (configuration not stated) ?
Return: 2.36

Enquiry: Would you kindly share the measured log10 IC50 for CCCCN1CCc2ccccc2C1CNC(=O)c1ccc(C)cc1 (configuration not stated) ?
Return: 3.12
